- experimental_target: Human immunodeficiency virus type 1 reverse transcriptase (Human immunodeficiency virus 1, UniProt Q72547)
value_type: IC50

N#Cc1c(Cl)cc(Cl)cc1COc1cccc(/C(O)=C/C(=O)C(=O)O)c1    > 50 µM

###

- experimental_target: Nucleic Acid
- measurement_description: Inhibitory activity against beta human DNA polymerase was determined
- Format: nucleic-acid assay
value_type: IC50

N#Cc1c(Cl)cc(Cl)cc1COc1cccc(/C(O)=C/C(=O)C(=O)O)c1    > 5 µM

###

- experimental_target: Nucleic Acid
- measurement_description: Inhibitory activity against alpha human DNA polymerase was determined
- Assay type: nucleic-acid assay
value_type: IC50

N#Cc1c(Cl)cc(Cl)cc1COc1cccc(/C(O)=C/C(=O)C(=O)O)c1    > 5 µM

###

- experimental_target: Nucleic Acid
- measurement_description: Inhibitory activity against gamma human DNA polymerase was determined
- Assay type: nucleic-acid assay
value_type: IC50

N#Cc1c(Cl)cc(Cl)cc1COc1cccc(/C(O)=C/C(=O)C(=O)O)c1    > 5 µM
